The measurements presented in this section are drawn from BigSolDB 2.1.

# RECORDED CONDITIONS: in ethyl acetate, 293.15 K
VALUE TYPE: solubility (mole fraction)
Write the value as a bare number.

Value of solubility (mole fraction) reported for the compound CC(=O)Nc1ccc([N+](=O)[O-])cc1 is 0.00562

====

# RECORDED CONDITIONS: in DMF, 288.15 K
VALUE TYPE: solubility (mole fraction)
Write the value as a bare number.

Value of solubility (mole fraction) reported for the compound CC(=O)Nc1ccc([N+](=O)[O-])cc1 is 0.112

====

# RECORDED CONDITIONS: in isobutanol, 318.15 K
VALUE TYPE: solubility (mole fraction)
Write the value as a bare number.

Value of solubility (mole fraction) reported for the molecule CC(=O)Nc1ccc([N+](=O)[O-])cc1 is 0.00602

====

# RECORDED CONDITIONS: in ethylene glycol, 303.15 K
VALUE TYPE: solubility (mole fraction)
Write the value as a bare number.

Value of solubility (mole fraction) reported for the molecule CC(=O)Nc1ccc([N+](=O)[O-])cc1 is 0.00208

====

# RECORDED CONDITIONS: in ethylene glycol, 313.15 K
VALUE TYPE: solubility (mole fraction)

Value of solubility (mole fraction) reported for the compound CC(=O)Nc1ccc([N+](=O)[O-])cc1 is 0.00301

====

# RECORDED CONDITIONS: in water, 298.15 K
VALUE TYPE: solubility (mole fraction)
Write the value as a bare number.

Value of solubility (mole fraction) reported for the compound CC(=O)Nc1ccc([N+](=O)[O-])cc1 is 1.68e-05

====

# RECORDED CONDITIONS: in ethyl acetate, 278.15 K
VALUE TYPE: solubility (mole fraction)
Write the value as a bare number.

Value of solubility (mole fraction) reported for the compound CC(=O)Nc1ccc([N+](=O)[O-])cc1 is 0.00357

====

# RECORDED CONDITIONS: in water, 313.15 K
VALUE TYPE: solubility (mole fraction)
Write the value as a bare number.

Value of solubility (mole fraction) reported for the molecule CC(=O)Nc1ccc([N+](=O)[O-])cc1 is 3.67e-05

====

# RECORDED CONDITIONS: in ethanol, 293.15 K
VALUE TYPE: solubility (mole fraction)
Write the value as a bare number.

Value of solubility (mole fraction) reported for the molecule CC(=O)Nc1ccc([N+](=O)[O-])cc1 is 0.00318

====

# RECORDED CONDITIONS: in cyclohexane, 283.15 K
VALUE TYPE: solubility (mole fraction)

Value of solubility (mole fraction) reported for the compound CC(=O)Nc1ccc([N+](=O)[O-])cc1 is 1.94e-06

====

# RECORDED CONDITIONS: in cyclohexane, 303.15 K
VALUE TYPE: solubility (mole fraction)
Write the value as a bare number.

Value of solubility (mole fraction) reported for the compound CC(=O)Nc1ccc([N+](=O)[O-])cc1 is 6.81e-06

====

# RECORDED CONDITIONS: in n-propanol, 298.15 K
VALUE TYPE: solubility (mole fraction)
Write the value as a bare number.

Value of solubility (mole fraction) reported for the compound CC(=O)Nc1ccc([N+](=O)[O-])cc1 is 0.00418

====

# RECORDED CONDITIONS: in n-heptanol, 298.15 K
VALUE TYPE: solubility (mole fraction)
Write the value as a bare number.

Value of solubility (mole fraction) reported for the compound CC(=O)Nc1ccc([N+](=O)[O-])cc1 is 0.00508

====

# RECORDED CONDITIONS: in acetonitrile, 298.15 K
VALUE TYPE: solubility (mole fraction)
Write the value as a bare number.

Value of solubility (mole fraction) reported for the compound CC(=O)Nc1ccc([N+](=O)[O-])cc1 is 0.00456
